Measured inhibition at 3 µM values are reported for all entries that follow.
# System: LS174T cells
# ASSAY TEXT: Cell proliferation inhibition assay (5 days, cell counting)
# Type: cell-based
# TEST PARAMETERS: Homo sapiens, LS174T; read-out: Inhibition % on LS174T cells Proliferation 3 uM Inhib. %

Please review the following examples before continuing.
SMILES STR: CN(C)c1ccc2cc(-c3cc(Cl)cc(Cl)c3)c(N)nc2c1
MEASURED TARGET: LS174T cells
inhibition at 3 µM: 86.4%
//
SMILES STR: CNc1ccc2cc(-c3cn(C)c4ccccc34)c(N)nc2c1
MEASURED TARGET: LS174T cells
inhibition at 3 µM: 96.9%
//
SMILES STR: CNc1ccc2cc(-c3cc(Cl)cc(Cl)c3)c(N)nc2c1
MEASURED TARGET: LS174T cells
inhibition at 3 µM: 97.2%
//
SMILES STR: CN(C)c1ccc2cc(-c3nc4cc(C(C)(C)C)ccc4o3)c(N)nc2c1
MEASURED TARGET: LS174T cells
inhibition at 3 µM: 91.5%

The measured inhibition at 3 µM that Cn1cc(-c2cc3ccc(N4CCOCC4)cc3nc2N)c2ccccc21 showed for LS174T cells is 98.1%

---

# Tested on: LS174T cells
# ASSAY TEXT: Cell proliferation inhibition assay (5 days, cell counting)
# Assay type: cell-based
# TEST PARAMETERS: Homo sapiens, LS174T; read-out: Inhibition % on LS174T cells Proliferation 1 uM Inhib. %
READOUT KIND: inhibition at 1 µM (%)
Enter your answer as a number in %; do not include the unit.

Please review the following examples before continuing.
SMILES STR: CN(C)c1ccc2cc(-c3ccc(Cl)c(Cl)c3)c(N)nc2c1
inhibition at 1 µM / %: 57.8

SMILES STR: Nc1nc2cc(N3CCCCC3)ccc2cc1-c1ccccc1F
inhibition at 1 µM / %: 96

SMILES STR: Nc1nc2cc(N3CCOCC3)ccc2cc1-c1ccccc1F
inhibition at 1 µM / %: 20.6

SMILES STR: Nc1nc2cc(N3CCCCC3)ccc2cc1-c1cc(Cl)cc(Cl)c1
inhibition at 1 µM / %: 46.6

SMILES STR: CN(C)c1ccc2cc(-c3cn(C)c4ccccc34)c(N)nc2c1
inhibition at 1 µM / %: 92.7

SMILES STR: CN(C)c1ccc2cc(-c3nc(-c4ccccc4)cs3)c(N)nc2c1
inhibition at 1 µM / %: 96.9

// field: inhibition at 1 µM; key: Nc1nc2cc(N3CCOCC3)ccc2cc1-c1cc(Cl)cc(Cl)c1 ; value = 35

// field: inhibition at 1 µM; key: Cn1cc(-c2cc3ccc(N4CCOCC4)cc3nc2N)c2ccccc21 ; value = 93.7

// field: inhibition at 1 µM; key: CN1CCN(c2ccc3cc(-c4cc(Cl)cc(Cl)c4)c(N)nc3c2)CC1 ; value = 27.9

// field: inhibition at 1 µM; key: CN(C)c1ccc2cc(-c3coc4ccccc34)c(N)nc2c1 ; value = 97.8

---

# System: LS174T cells
# ASSAY TEXT: Cell proliferation inhibition assay (5 days, cell counting)
# Type: cell-based
# TEST PARAMETERS: Homo sapiens, LS174T; read-out: Inhibition % on LS174T cells Proliferation 1 uM Inhib. %
READOUT KIND: inhibition at 1 µM (%)
Enter your answer as a number in %; do not include the unit.

SMILES STR: CN1CCN(c2ccc3cc(-c4cn(C)c5ccccc45)c(N)nc3c2)CC1
READOUT KIND: inhibition at 1 µM
UNIT SYMBOL: %
READOUT VALUE: 25.2

// field: inhibition at 1 µM; key: Nc1nc2cc(N3CCCC3)ccc2cc1-c1cc(Cl)cc(Cl)c1 ; value = 93.1

// field: inhibition at 1 µM; key: CN(C)c1ccc2cc(-c3nc(-c4ccc(Br)cc4)cs3)c(N)nc2c1 ; value = 45

// field: inhibition at 1 µM; key: COc1ccc(-c2csc(-c3cc4ccc(N(C)C)cc4nc3N)n2)cc1 ; value = 24.2
